Answer each item with its documented IC50, HIV-1 NL4.3 (X4), MT-4.
# TARGET UNDER TEST: CXCR4 and CD4 co-expressed on cells (MOLM-13, THP-1, MT-4, PBMC; Jurkat CD4 low) (human, UniProt P61073 1-352; P01730 26-458)
# Sequence (P61073 whole entry, chain 1 of 2, other chains not shown): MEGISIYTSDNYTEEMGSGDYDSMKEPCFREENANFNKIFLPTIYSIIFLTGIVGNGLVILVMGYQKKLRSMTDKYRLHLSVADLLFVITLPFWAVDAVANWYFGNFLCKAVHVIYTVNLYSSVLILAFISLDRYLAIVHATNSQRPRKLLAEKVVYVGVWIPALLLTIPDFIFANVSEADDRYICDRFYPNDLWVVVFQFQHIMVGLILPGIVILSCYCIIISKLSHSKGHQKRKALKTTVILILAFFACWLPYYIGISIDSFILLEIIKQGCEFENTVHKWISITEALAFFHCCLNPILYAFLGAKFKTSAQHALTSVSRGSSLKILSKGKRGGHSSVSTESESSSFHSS
# ASSAY NOTES: cell-based or functional assay
Give bare numbers, in nM.

binder="03F11-25GS-281F12 (bispecific antibody) EVQLVESGGGSVQPGGSLTLSCGTSGRTFNVMGWFRQAPGKEREFVAAVRWSSTGIYYTQYADSVKSRFTISRDNAKNTVYLEMNSLKPEDTAVYYCAADTYNSNPARWDGYDFRGQGTQVTVSSGGGGSGGGGSGGGGSGGGGSGGGGSEVQLVESGGGLVQAGDSLRLSCAASGRAFSRYAMGWFRQAPGKEREFVAAIGWGPSKTNYADSVKGRFTISRDNAKNTVYLQMNTLKPEDTAVYSCAAKFVNTDSTWSRSEMYTYWGQGTQVTVSS" metric_name="IC50, HIV-1 NL4.3 (X4), MT-4" value=9.22

// query Please report IC50, HIV-1 NL4.3 (X4), MT-4 for the following binder: 281F12-9GS-03F11 (bispecific antibody, also called CXCR4#2-9GS-CD4#8) EVQLVESGGGLVQAGDSLRLSCAASGRAFSRYAMGWFRQAPGKEREFVAAIGWGPSKTNYADSVKGRFTISRDNAKNTVYLQMNTLKPEDTAVYSCAAKFVNTDSTWSRSEMYTYWGQGTQVTVSSGGGSGGGGSEVQLVESGGGSVQPGGSLTLSCGTSGRTFNVMGWFRQAPGKEREFVAAVRWSSTGIYYTQYADSVKSRFTISRDNAKNTVYLEMNSLKPEDTAVYYCAADTYNSNPARWDGYDFRGQGTQVTVSS
// result 0.2

Data provenance is patent US20160251440A1.
